Attribution: paper PMC4408108

molecular target: nAChRs expressed in human iPSC-derived neurons (predominantly α7 nAChRs) (Homo sapiens); settings: applied alone
Sequence (P36544 23-502): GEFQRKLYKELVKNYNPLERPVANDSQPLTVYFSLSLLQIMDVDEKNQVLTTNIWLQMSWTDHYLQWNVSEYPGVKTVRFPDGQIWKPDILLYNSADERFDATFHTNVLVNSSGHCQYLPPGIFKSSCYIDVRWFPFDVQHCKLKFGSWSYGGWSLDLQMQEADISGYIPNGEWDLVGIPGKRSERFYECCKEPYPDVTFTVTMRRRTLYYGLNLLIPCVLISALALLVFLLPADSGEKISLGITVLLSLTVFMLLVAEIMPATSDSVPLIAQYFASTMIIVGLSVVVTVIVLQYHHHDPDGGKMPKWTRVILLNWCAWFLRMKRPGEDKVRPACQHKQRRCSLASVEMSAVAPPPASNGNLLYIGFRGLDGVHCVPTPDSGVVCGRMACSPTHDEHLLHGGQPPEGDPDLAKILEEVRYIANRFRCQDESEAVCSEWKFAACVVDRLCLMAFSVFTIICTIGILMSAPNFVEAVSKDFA
readoutKind: EC50 (nM)
Provide the reading as a plain figure in nM.

In: Output measured EC50 for this item: NS(=O)(=O)c1ccc2c(c1)C1C=CCC1C(c1ccc(Br)cc1)N2 (stereo not shown)
Out: 4.3

---

molecular target: nAChRs expressed in human iPSC-derived neurons (predominantly α7 nAChRs) (Homo sapiens); experiment: cell-based; conditions: EC50, + 3 μM PNU-120596;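 further: Fluo-4 calcium imaging on a FLIPR in human iPSC-derived neurons 4–8 days after plating, peak minus baseline fluorescence expressed as percent of the 30 mM KCl depolarisation response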
readoutKind: pEC50
Bear in mind: pEC50 is minus log10 of a mol/L concentration; give just that figure.

In: Output measured pEC50 for this item: Clc1ccc(C2CC3CCC2N3)cn1 (stereo not shown) [Epibatidine, epibatidine]
Out: 7.85
